# Test system: HCC 2998
# test_name: NCI tumour cell line growth inhibition, 48 h
Active and inactive are the calls of the source. Cut-off read from the data, not from the text of the source: active = GI50 up to about 1.1 µM and inactive = higher.
Please provide measured GI50 for the entries that follow.

Give HCC 2998 GI50 for `C(=N\N=C1NCCN1)/c1ccc2ccccc2c1`
12.7 µM (inactive)

Give HCC 2998 GI50 for CC1CCP(=O)(c2ccccc2)CC1 (centres undefined)
> 100 µM (inactive)

Give HCC 2998 GI50 for CC(C)C1COC(c2ccc3ccccc3c2-c2c(O[Si](C)(C)C(C)(C)C)ccc3ccccc23)=N1 (centres undefined)
15.1 µM (inactive)

Give HCC 2998 GI50 for `O=C1C(Br)=CC2(C=C1Br)CCNC1=C2C(=O)c2[nH]cnc2C1=O`
25.8 µM (inactive)

Give HCC 2998 GI50 for `Nc1nc2ccc(Sc3ccc4nc(N)[nH]c(=O)c4c3)cc2c(=O)[nH]1`
> 100 µM (inactive)

Give HCC 2998 GI50 for `CCc1cc2c(c3[nH]ccc13)[C@@H](C)C[C@H]2C`
21.2 µM (inactive)

Give HCC 2998 GI50 for `CC(=O)/C=C/C=C(\C)CC/C=C(\C)CC(C)C`
18.4 µM (inactive)

Give HCC 2998 GI50 for CC(=O)C1(O)CCC2(O)C3(O)CC=C4CC(O)CCC4(C)C3CC(OC(=O)c3ccc(O)cc3)C12C.COC1CC(OC2C(C)OC(OC3C(C)OC(OC4CCC5(C)C(=CCC6(O)C5CC(OC(=O)c5ccc(O)cc5)C5(C)C(O)(C(C)=O)CCC65O)C4)CC3OC)CC2OC)OC(C)C1O (centres undefined)
26.9 µM (inactive)

Give HCC 2998 GI50 for O=C1NC(=O)C2C1N(Cc1ccccc1)C(=O)N2Cc1ccccc1 (centres undefined)
> 100 µM (inactive)

Give HCC 2998 GI50 for C=CCN1CCC23c4c5ccc(O)c4OC2C(=NN=C2CCC4(O)C6Cc7ccc(O)c8c7C4(CCN6CC=C)C2O8)CCC3(O)C1C5 (centres undefined)
21.3 µM (inactive)

Give HCC 2998 GI50 for `C/C(=N\N=C(/S)N1CC2CCC(CC2)C1)c1cccc[n+]1[O-]`
10.8 µM (inactive)

Give HCC 2998 GI50 for C=C(C)C1CC(=O)C(C)=C(O)C1 (centres undefined)
> 100 µM (inactive)

Give HCC 2998 GI50 for CCOC(=O)CNC(=O)C(CSC(=O)N(O)c1ccc(Br)cc1)NC(=O)CCC(N)C(=O)OCC (centres undefined)
> 50 µM (inactive)

Give HCC 2998 GI50 for CCOC1SC(SC)=NN1C(=O)C(OC(C)=O)C(OC(C)=O)C(OC(C)=O)C(OC(C)=O)C(=O)N1N=C(SC)SC1OCC (centres undefined)
> 100 µM (inactive)

Give HCC 2998 GI50 for COC(=O)C1SC[C@H]2C(=O)N(c3ccccc3)C(=O)N12 (some centres undefined)
> 100 µM (inactive)

Give HCC 2998 GI50 for `COCc1nc2c(OC)c(-c3nc4ccc(N5CCN(C)CC5)nc4[nH]3)cc(OC)c2n1C`
14.4 µM (inactive)

Give HCC 2998 GI50 for `COc1ccc2c(=O)c3cc([N+](=O)[O-])ccc3n(C)c2c1`
> 100 µM (inactive)

Give HCC 2998 GI50 for `c1ccc(/N=C2\SC3=NCCN3\C2=N/c2ccccc2)cc1`
18.7 µM (inactive)

Give HCC 2998 GI50 for `COC(=O)C(=O)CC(=O)CCn1ncc(Cl)c(Cl)c1=O`
7.45 µM (inactive)
